The reported numbers originate from patent US20240391948A1.

- Tested on: U937 cells (human monocytic cell line)
- experimentDescription: BzATP-induced IL-1β secretion inhibition in PMA-differentiated U937 cells
- Assay type: cell-based
- conditionSummary: U-937, U937 cells differentiated with PMA, read-out: IL-1β production inhibition grade (IC50)
pIC50: −log10 of the molar value.

{"columns": ["compoundSmiles", "assayedTarget", "pIC50"],
 "data": [
  ["CC[C@H]1[C@@H](O)[C@@H]2[C@H](CC[C@]3(C)[C@@H]([C@H](C)CCC(=O)N(CCS(=O)(=O)O)C4CCOCC4)CC[C@@H]23)[C@@]2(C)CC[C@@H](O)C[C@@H]12", "U937 cells (human monocytic cell line)", "> 7.30"],
  ["C[C@H](CCC(=O)NC[C@@H](C)S(=O)(=O)O)[C@H]1CC[C@H]2[C@@H]3CC[C@@H]4C[C@H](O)CC[C@]4(C)[C@H]3C[C@H](O)[C@]12C", "U937 cells (human monocytic cell line)", "7.00 to 7.30"],
  ["C[C@H](CCC(=O)N(CCS(=O)(=O)O)c1ccccc1)[C@H]1CC[C@H]2[C@@H]3CC[C@@H]4CC(=O)CC[C@]4(C)[C@H]3CC[C@]12C", "U937 cells (human monocytic cell line)", "> 7.30"],
  ["C[C@H](CCC(=O)N(CCS(=O)(=O)O)C1CCCCC1)[C@H]1CC[C@H]2[C@@H]3CC[C@@H]4C[C@H](O)CC[C@]4(C)[C@H]3C[C@H](O)[C@]12C", "U937 cells (human monocytic cell line)", "≤ 6.70"],
  ["CC[C@H]1[C@@H](O)[C@@H]2[C@H](CC[C@]3(C)[C@@H]([C@H](C)CCC(=O)N(CCO)CCS(=O)(=O)O)CC[C@@H]23)[C@@]2(C)CC[C@@H](O)C[C@@H]12", "U937 cells (human monocytic cell line)", "≤ 6.70"]
]}

----------
- System: J774A.1 (Mouse BALB/c monocyte macrophage cell line) cells
- experimentDescription: LPS-induced TNF-α secretion inhibition in J774A.1 cells
- Type: cell-based
- conditionSummary: J774.A1, 1 μM compound, graded compared to taurodeoxycholic acid (positive control), read-out: TNF-α production inhibition grade
This listing pairs molecules with measured inhibition at 1 µM.

{"columns": ["compoundSmiles", "inhibition at 1 µM"],
 "data": [
  ["CC[C@H]1[C@@H](O)[C@@H]2[C@H](C[C@H](O)[C@]3(C)[C@@H]([C@H](C)CCC(=O)N[C@@H](CC(C)C)CS(=O)(=O)O)CC[C@@H]23)[C@@]2(C)CC[C@@H](O)C[C@@H]12", "< 20%"],
  ["CC[C@H]1[C@@H](O)[C@@H]2[C@H](CC[C@]3(C)[C@@H]([C@H](C)CCC(=O)N[C@@H](CO)CS(=O)(=O)O)CC[C@@H]23)[C@@]2(C)CC[C@@H](O)C[C@@H]12", "< 20%"],
  ["C[C@H](CCC(=O)N[C@@H](CS(=O)(=O)O)c1ccccc1)[C@H]1CC[C@H]2[C@@H]3CC[C@@H]4C[C@H](O)CC[C@]4(C)[C@H]3C[C@H](O)[C@]12C", "< 20%"],
  ["C[C@H](CCC(=O)N[C@H]1CCCC[C@H]1S(=O)(=O)O)[C@H]1CC[C@H]2[C@@H]3CC[C@@H]4CC(=O)CC[C@]4(C)[C@H]3CC[C@]12C", "> 100%"],
  ["C[C@H](CCC(=O)N(CCS(=O)(=O)O)CC(N)=O)[C@H]1CC[C@H]2[C@@H]3CC[C@@H]4C[C@H](O)CC[C@]4(C)[C@H]3C[C@H](O)[C@]12C", "< 20%"],
  ["CC(C)[C@@H](CS(=O)(=O)O)NC(=O)CC[C@@H](C)[C@H]1CC[C@H]2[C@@H]3CC[C@@H]4C[C@H](O)CC[C@]4(C)[C@H]3C[C@H](O)[C@]12C", "< 20%"],
  ["C[C@H](CCC(=O)NC(C)(C)CS(=O)(=O)O)[C@H]1CC[C@H]2[C@@H]3CC[C@@H]4C[C@H](O)CC[C@]4(C)[C@H]3CC[C@]12C", "< 20%"],
  ["C[C@H](CCC(=O)NC[C@@H](C)S(=O)(=O)O)[C@H]1CC[C@H]2[C@@H]3CC[C@@H]4CC(=O)CC[C@]4(C)[C@H]3CC[C@]12C", "> 100%"],
  ["C[C@H](CCC(=O)NC[C@H](C)S(=O)(=O)O)[C@H]1CC[C@H]2[C@@H]3[C@H](O)C[C@@H]4C[C@H](O)CC[C@]4(C)[C@H]3C[C@H](O)[C@]12C", "< 20%"],
  ["CC[C@H]1[C@@H](O)[C@@H]2[C@H](CC[C@]3(C)[C@@H]([C@H](C)CCC(=O)N4CC[C@@H](S(=O)(=O)O)C4)CC[C@@H]23)[C@@]2(C)CC[C@@H](O)C[C@@H]12", "20 to 50%"],
  ["C[C@H](CCC(=O)N[C@@H](C)CS(=O)(=O)O)[C@H]1CC[C@H]2[C@@H]3CC[C@@H]4C[C@H](O)CC[C@]4(C)[C@H]3C[C@H](O)[C@]12C", "< 20%"],
  ["CC[C@H]1[C@@H](O)[C@@H]2[C@H](C[C@H](O)[C@]3(C)[C@@H]([C@H](C)CCC(=O)N(CCS(=O)(=O)O)C4CCOCC4)CC[C@@H]23)[C@@]2(C)CC[C@@H](O)C[C@@H]12", "< 20%"],
  ["C[C@H](CCC(=O)N1CCN(S(=O)(=O)O)CC1)[C@H]1CC[C@H]2[C@@H]3CC[C@@H]4C[C@H](O)CC[C@]4(C)[C@H]3C[C@H](O)[C@]12C", "> 100%"],
  ["CC[C@H]1[C@@H](O)[C@@H]2[C@H](C[C@H](O)[C@]3(C)[C@@H]([C@H](C)CCC(=O)N(C)CCS(=O)(=O)O)CC[C@@H]23)[C@@]2(C)CC[C@@H](O)C[C@@H]12", "< 20%"],
  ["C[C@H](CCC(=O)N(CCS(=O)(=O)O)Cc1ccccc1)[C@H]1CC[C@H]2[C@@H]3[C@H](O)C[C@@H]4C[C@H](O)CC[C@]4(C)[C@H]3C[C@H](O)[C@]12C", "< 20%"],
  ["C[C@H](CCC(=O)N[C@@H](Cc1ccccc1)CS(=O)(=O)O)[C@H]1CC[C@H]2[C@@H]3CC[C@@H]4C[C@H](O)CC[C@]4(C)[C@H]3CC[C@]12C", "< 20%"],
  ["CC(C)[C@H](CS(=O)(=O)O)NC(=O)CC[C@@H](C)[C@H]1CC[C@H]2[C@@H]3CC[C@@H]4C[C@H](O)CC[C@]4(C)[C@H]3CC[C@]12C", "< 20%"],
  ["CC(C)C[C@H](CS(=O)(=O)O)NC(=O)CC[C@@H](C)[C@H]1CC[C@H]2[C@@H]3[C@H](O)C[C@@H]4C[C@H](O)CC[C@]4(C)[C@H]3C[C@H](O)[C@]12C", "< 20%"],
  ["CC(C)[C@@H](CS(=O)(=O)O)NC(=O)CC[C@@H](C)[C@H]1CC[C@H]2[C@@H]3CC[C@@H]4C[C@H](O)CC[C@]4(C)[C@H]3CC[C@]12C", "< 20%"]
]}
